Measured binding affinity ratio (IC50 of standard peptide / IC50 of test peptide) by item
ASSAYED_SYSTEM: HLA-A*0201 (human)
ASSAY_INFO: competition with 125I-labelled standard peptide for purified HLA, gel filtration
Respond with the number and no other words.

KVLVLNPSV (modifications not checked) [HCV peptide … (HCV polyprotein position 1255)]
0.0048
SLHSYSPGEI (modifications not checked) [HCV peptide … (polyprotein position 2926)]
0.0008
SLTGRDKNQV (modifications not checked) [HCV peptide … (polyprotein position 1051)]
0.0002

Now take the following binder into account.
So for QLPCEPEPDV (modifications not checked) [HCV peptide … (polyprotein position 2164)] , the logged binding affinity ratio (IC50 of standard peptide / IC50 of test peptide) turned out to be 0.0002
